tgt: KLF5^K369R protein (Homo sapiens, UniProt Q13887, K369R)
Sequence (Q13887 whole entry K369R): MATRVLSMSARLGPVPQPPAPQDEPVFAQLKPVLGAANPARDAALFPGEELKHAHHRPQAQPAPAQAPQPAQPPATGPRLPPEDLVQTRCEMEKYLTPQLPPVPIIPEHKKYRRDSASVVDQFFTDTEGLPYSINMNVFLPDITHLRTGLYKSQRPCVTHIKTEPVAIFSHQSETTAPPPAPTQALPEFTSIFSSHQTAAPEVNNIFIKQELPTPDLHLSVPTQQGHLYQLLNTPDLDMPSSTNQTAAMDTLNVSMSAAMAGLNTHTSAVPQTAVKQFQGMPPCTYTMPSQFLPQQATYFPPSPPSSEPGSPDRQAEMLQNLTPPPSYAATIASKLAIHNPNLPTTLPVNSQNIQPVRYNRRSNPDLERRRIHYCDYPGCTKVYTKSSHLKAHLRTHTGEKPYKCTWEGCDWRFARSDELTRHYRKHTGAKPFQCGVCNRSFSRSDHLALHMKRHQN
experiment summary: Fluorescence titration (quenching) of KLF5 protein
cond: read-out: binding constant Kd
observed property: Kd (µM)

compound | tgt | qualifier symbol | measured value
CC1(C)CCC(C)(C)c2cc(NC(=O)c3ccc(C(=O)O)cc3)ccc21 [Am80] | KLF5^K369R protein (Homo sapiens, UniProt Q13887, K369R) | > | 30
CC(=O)Oc1ccccc1C(=O)Nc1ncc([N+](=O)[O-])s1 [Nitazoxanide] | KLF5^K369R protein (Homo sapiens, UniProt Q13887, K369R) | = | 7.3

====

Tested on: PC-3-KQ cells
experiment summary: 3D spheroid invasion assay and screening of FDA-approved drugs
Type: cell-based, human
cond: 0.01 μM (first column so headed); third screening of 25 hit compounds (Table S2); compared to vehicle control
The following compounds are shown together with reported Invasion rates (%) of each drug’s multiple concentrations (μM) values.
observed property: Invasion rates (%) of each drug’s multiple concentrations (μM)

compound | measured value
Cc1nc(Nc2ncc(C(=O)Nc3c(C)cccc3Cl)s2)cc(N2CCN(CCO)CC2)n1.Cl [Dasatinib (hydrochloride)] | 99.47
C=C1c2cccc(O)c2C(O)=C2C(=O)[C@]3(O)C(O)=C(C(N)=O)C(=O)[C@@H](N(C)C)[C@@H]3[C@@H](O)[C@H]12.Cl [Methacycline (hydrochloride)] | 93.06
CN(C)[C@@H]1C(=O)C(C(N)=O)=C(O)[C@@]2(O)C(=O)C3=C(O)c4c(O)ccc(Cl)c4[C@@H](O)[C@H]3C[C@@H]12.Cl [Demeclocycline (hydrochloride)] | 93.85

====

Test system: PC-3-KQ cells
experiment summary: 3D spheroid invasion assay and screening of FDA-approved drugs
Type: cell-based, human
cond: 1 μM; third screening of 25 hit compounds (Table S2); compared to vehicle control
observed property: Invasion rates (%) of each drug’s multiple concentrations (μM)

molecule | tgt | measured value
CN1C[C@@H]2C[C@H]1CN2c1cc2c(cc1F)c(=O)c(C(=O)O)cn2C1CC1.CS(=O)(=O)O [Danofloxacin (mesylate)] | PC-3-KQ cells | 77.40
CC(=O)OC[C@H]1O[C@@H]([S-])[C@H](OC(C)=O)[C@@H](OC(C)=O)[C@@H]1OC(C)=O.CCP(CC)CC.[Au+] | PC-3-KQ cells | 2.34
CN(C)[C@@H]1C(=O)C(C(N)=O)=C(O)[C@@]2(O)C(=O)C3=C(O)c4c(O)ccc(Cl)c4[C@@H](O)[C@H]3C[C@@H]12.Cl [Demeclocycline (hydrochloride)] | PC-3-KQ cells | 2.65
Cc1nc(Nc2ncc(C(=O)Nc3c(C)cccc3Cl)s2)cc(N2CCN(CCO)CC2)n1.Cl [Dasatinib (hydrochloride)] | PC-3-KQ cells | 87.73
C=C1c2cccc(O)c2C(O)=C2C(=O)[C@]3(O)C(O)=C(C(N)=O)C(=O)[C@@H](N(C)C)[C@@H]3[C@@H](O)[C@H]12.Cl [Methacycline (hydrochloride)] | PC-3-KQ cells | 5.12
C[C@H]1c2cccc(O)c2C(O)=C2C(=O)[C@]3(O)C(O)=C(C(N)=O)C(=O)[C@@H](N(C)C)[C@@H]3[C@@H](O)[C@@H]21 [Doxycycline (hyclate)] | PC-3-KQ cells | 5.76
Cc1ncc([N+](=O)[O-])n1CC(O)CN1CCOCC1 (single isomer, unassigned) [Morinidazole (R enantiomer)] | PC-3-KQ cells | 6.21
CN(C)c1cc(NC(=O)CNC(C)(C)C)c(O)c2c1C[C@H]1C[C@H]3[C@H](N(C)C)C(=O)C(C(N)=O)=C(O)[C@@]3(O)C(=O)C1=C2O.CS(=O)(=O)O.CS(=O)(=O)O.CS(=O)(=O)O.CS(=O)(=O)O [Tigecycline (tetramesylate)] | PC-3-KQ cells | 2.36
CNC[C@H](O)[C@@H](O)[C@H](O)[C@H](O)CO.Nc1nc(-n2cc(C(=O)O)c(=O)c3cc(F)c(N4CC(O)C4)c(Cl)c32)c(F)cc1F | PC-3-KQ cells | 1.96
